- Test system: SK-LMS-1
- measurement.description: relative viability vs DMSO control (72 h) (fraction); higher = more viable cells
- reported.conditions: 10 µM
relative viability listing for selected molecules.
Just the number, please, no unit attached.

// worked examples, relative viability included
COc1cc(CCc2cc(NC(=O)c3ccc(N4CC(C)NC(C)C4)cc3)n[nH]2)cc(OC)c1 (stereo not drawn) [AZD-4547]    0.645
CO[C@H]1C[C@@H]2CC[C@@H](C)[C@@](O)(O2)C(=O)C(=O)N2CCCC[C@H]2C(=O)O[C@H]([C@H](C)C[C@@H]2CC[C@@H](OCCO)[C@H](OC)C2)CC(=O)[C@H](C)/C=C(\C)[C@@H](O)[C@@H](OC)C(=O)[C@H](C)C[C@H](C)/C=C/C=C/C=C/1C [Certican]    0.512

Value of measured relative viability for the entry CC(C)(C)c1nc(-c2cccc(NS(=O)(=O)c3c(F)cccc3F)c2F)c(-c2ccnc(N)n2)s1 [Dabrafenib] : 0.557

###

The following molecules are shown together with reported relative viability values.
- Tested on: MES-SA
- measurement.description: relative viability vs DMSO control (72 h) (fraction); higher = more viable cells
- reported.conditions: 0.3704 µM

These solved cases illustrate the format of a correct answer.
CC#CC(=O)N1CCC[C@H]1c1nc(-c2ccc(C(=O)Nc3ccccn3)cc2)c2c(N)nccn12 [Acalabrutinib]    0.926
CC(C)Oc1ccc(-c2nn([C@@H](C)c3oc4ccc(F)cc4c(=O)c3-c3cccc(F)c3)c3ncnc(N)c23)cc1F [Umbralisib]    0.945
N#CCNC(=O)c1ccc(-c2ccnc(Nc3ccc(N4CCOCC4)cc3)n2)cc1 [Momelotinib]    0.786
CC[C@@H]1CN(C(=O)NCC(F)(F)F)C[C@@H]1c1cnc2cnc3[nH]ccc3n12 [Upadacitinib]    0.936
CCc1cnn2c(NCc3ccc[n+]([O-])c3)cc(N3CCCC[C@H]3CCO)nc12 [Dinaciclib]    0.0357
O=C(Nc1nc2cccc(-c3ccc(CN4CCS(=O)(=O)CC4)cc3)n2n1)C1CC1 [Filgotinib]    0.935

relative viability measured on CC(C)(O)CNc1nc(Nc2ccnc(C(F)(F)F)c2)nc(-c2cccc(C(F)(F)F)n2)n1 [Enasidenib] = 0.945

Record COC(=O)N[C@@H](C)CNc1nccc(-c2cn(C(C)C)nc2-c2cc(Cl)cc(NS(C)(=O)=O)c2F)n1 [Encorafenib] . Reported relative viability: 0.972

Looking up CO[C@H]1C[C@@H]2CC[C@@H](C)[C@@](O)(O2)C(=O)C(=O)N2CCCC[C@H]2C(=O)O[C@H]([C@H](C)C[C@@H]2CC[C@@H](OCCO)[C@H](OC)C2)CC(=O)[C@H](C)/C=C(\C)[C@@H](O)[C@@H](OC)C(=O)[C@H](C)C[C@H](C)/C=C/C=C/C=C/1C [Certican] , I found its relative viability recorded as 0.373

Reported relative viability ( CCN(CC)CCNC(=O)c1c(C)[nH]c(/C=C2\C(=O)Nc3ccc(F)cc32)c1C [Sunitinib] ) = 0.83

Lab note: measured relative viability of O=S(=O)(c1cccc2cnccc12)N1CCCNCC1 [Fasudil] was 0.994

Item: COc1cc(Nc2ncc(F)c(Nc3ccc4c(n3)N(COP(=O)(O)O)C(=O)C(C)(C)O4)n2)cc(OC)c1OC [Fostamatinib] | relative viability: 0.768

###

- Tested on: HT1080
- measurement.description: relative viability vs DMSO control (72 h) (fraction); higher = more viable cells
- reported.conditions: 10 µM
Assign labels as follows, please: label 1 for relative viability below 1; label 0 for relative viability equal to or exceeding 1.

COC(=O)[C@@]1(O)C[C@H]2O[C@]1(C)n1c3ccccc3c3c4c(c5c6ccccc6n2c5c31)C(=O)NC4 [K-252a]    label 1
COc1cc(Nc2ncc(F)c(Nc3ccc4c(n3)N(COP(=O)(O)O)C(=O)C(C)(C)O4)n2)cc(OC)c1OC    label 1
Cn1cc(C2=C(c3cn(C4CCN(Cc5ccccn5)CC4)c4ccccc34)C(=O)NC2=O)c2ccccc21    label 0
O=C(Nc1nc2cccc(-c3ccc(CN4CCS(=O)(=O)CC4)cc3)n2n1)C1CC1    label 0
CC#CC(=O)N1CCC[C@H]1c1nc(-c2ccc(C(=O)Nc3ccccn3)cc2)c2c(N)nccn12    label 0
Cc1cc2cc(Oc3ccnc(Nc4cccc(CS(=O)(=O)NCCN(C)C)c4)n3)ccc2[nH]1    label 1
Clc1ccc(Nc2nnc(Cc3ccncc3)c3ccccc23)cc1    label 0

Here is the next item to consider.
**Query** Please indicate whether the reported relative viability of N#CCNC(=O)c1ccc(-c2ccnc(Nc3ccc(N4CCOCC4)cc3)n2)cc1 is strictly below 1.
**Result** label 0

###

- Tested on: A204
- measurement.description: standardised AUC of viability dose-response curve (72 h) (fraction (0-1)); higher = less growth inhibition (more resistant)
Mark label 0 for standardised AUC values under 0.9, and label 1 for everything at or above.

N#CCNC(=O)c1ccc(-c2ccnc(Nc3ccc(N4CCOCC4)cc3)n2)cc1    label 0

**Query** Kindly determine if standardised AUC recorded for C[C@]12O[C@H](C[C@]1(O)CO)n1c3ccccc3c3c4c(c5c6ccccc6n2c5c31)CNC4=O is above or exactly 0.9.
**Result** label 0

**Query** Is standardised AUC at least 0.9? Consider Cc1cccc(-c2nn3c(c2-c2ccnc4ccc(C(N)=O)cc24)CCC3)n1
**Result** label 1

###

- Test system: SW1353
- measurement.description: relative viability vs DMSO control (72 h) (fraction); higher = more viable cells
- reported.conditions: 3.333 µM
readout.kind: relative viability
Keep it simple and answer with nothing but the number.

Worked cases, answers included:
CN1CCN(c2ccc(C(=O)Nc3n[nH]c4ccc(Cc5cc(F)cc(F)c5)cc34)c(NC3CCOCC3)c2)CC1    0.782
C[C@H](Nc1ncnc2nc[nH]c12)c1cc2cccc(Cl)c2c(=O)n1-c1ccccc1    0.761
CO[C@H]1C[C@@H]2CC[C@@H](C)[C@@](O)(O2)C(=O)C(=O)N2CCCC[C@H]2C(=O)O[C@H]([C@H](C)C[C@@H]2CC[C@@H](OCCO)[C@H](OC)C2)CC(=O)[C@H](C)/C=C(\C)[C@@H](O)[C@@H](OC)C(=O)[C@H](C)C[C@H](C)/C=C/C=C/C=C/1C    0.677

Hey, SW1353 data for Cn1cc(C2=C(c3cn(C4CCN(Cc5ccccn5)CC4)c4ccccc34)C(=O)NC2=O)c2ccccc21 : relative viability came out at 0.857

###

Entries annotated with measured relative viability
- System: SW1353
- measurement.description: relative viability vs DMSO control (72 h) (fraction); higher = more viable cells
- reported.conditions: 0.3704 µM
Format: numeric value only, no unit, no commentary.

The following compounds have reported results that may help.
O=C(Nc1nc2cccc(-c3ccc(CN4CCS(=O)(=O)CC4)cc3)n2n1)C1CC1    1.02
CCN1C(=O)N(c2c(F)c(OC)cc(OC)c2F)Cc2cnc3[nH]c(CN4CCOCC4)cc3c21    0.843

I looked up O=c1sn(-c2cccc3ccccc23)c(=O)n1Cc1ccccc1 and its relative viability for SW1353 was 0.966

Entry CC(C)NC[C@@H](C(=O)N1CCN(c2ncnc3c2[C@H](C)C[C@H]3O)CC1)c1ccc(Cl)cc1 : relative viability on SW1353 = 0.862

The recorded relative viability with SW1353 for Cc1ccc(Nc2nccc(N(C)c3ccc4c(C)n(C)nc4c3)n2)cc1S(N)(=O)=O was 0.939

Query CO[C@H]1C[C@@H]2CC[C@@H](C)[C@@](O)(O2)C(=O)C(=O)N2CCCC[C@H]2C(=O)O[C@H]([C@H](C)C[C@@H]2CC[C@@H](OCCO)[C@H](OC)C2)CC(=O)[C@H](C)/C=C(\C)[C@@H](O)[C@@H](OC)C(=O)[C@H](C)C[C@H](C)/C=C/C=C/C=C/1C on SW1353; relative viability returned: 0.71

Note to self: relative viability of C[C@H](Nc1ncnc2nc[nH]c12)c1cc2cccc(Cl)c2c(=O)n1-c1ccccc1 with SW1353 was 0.885

# value of relative viability, SW1353, item COC(=O)[C@@]1(O)C[C@H]2O[C@]1(C)n1c3ccccc3c3c4c(c5c6ccccc6n2c5c31)C(=O)NC4 [K-252a] = 0.772

Short answer on SW1353 for O=C(Nc1ccc(OC(F)(F)Cl)cc1)c1cnc(N2CC[C@@H](O)C2)c(-c2cc[nH]n2)c1 , relative viability: 1.14

###

- Test system: SW1353
- measurement.description: relative viability vs DMSO control (72 h) (fraction); higher = more viable cells
- reported.conditions: 3.333 µM
The reader will find reported relative viability values listed item by item below.
Reply with just the number.

Below, each entry is followed by its recorded relative viability result.
CC(C)(O)CNc1nc(Nc2ccnc(C(F)(F)F)c2)nc(-c2cccc(C(F)(F)F)n2)n1 [Enasidenib]    0.994
CCC(=O)N1CC[C@H](Nc2ncnc3c2CN(c2cnc(OC)c(C(F)(F)F)c2)CC3)C1 [Leniolisib]    0.826
O=C(Nc1ccc(OC(F)(F)Cl)cc1)c1cnc(N2CC[C@@H](O)C2)c(-c2cc[nH]n2)c1 [Asciminib]    1.06

Proceeding to the next compound to report its relative viability.
For reference, reported relative viability for Cc1ccc(Nc2nccc(N(C)c3ccc4c(C)n(C)nc4c3)n2)cc1S(N)(=O)=O [Pazopanib] stands at 0.89
